These entries and their values trace back to ChEMBL document CHEMBL2157905.

- tgt: Human immunodeficiency virus type 1 reverse transcriptase (Human immunodeficiency virus 1)
- assay.text: Inhibition of HIV-1 reverse transcriptase using Poly(rA).p(dT) (12 to 18) as substrate after 30 mins by single point PCR assay
- test.settings: read-out: IC50
pIC50: −log10 of the molar value. Starred links: 1 amine or outer side, 2 acyl side, 3 side chain; linkers in the order of their positions; H or OH if unused. Positions of bridges follow the written chain, without caps; N, C: chain ends. Non-standard residues stand in square brackets, D forms with d. Residues, ends and D or L forms follow the SMILES beside them. Chains are numbered I, II in the order given. Actinocin(9to1) = Cc1c2oc3c(C)ccc(C(=O)[*:1])c3nc-2c(C(=O)[*:2])c(N)c1=O; NMeV = CN[C@H](C(=O)O)C(C)C; Sar = CNCC(=O)O
# if value of pIC50 reaches 4, tag TRUE; if it stays below, tag FALSE

Exercise: # bool: pIC50 of `CN(C)c1ccc2cc3ccc(N(C)C)cc3nc2c1` >= 4
Solution: FALSE

Exercise: # bool: pIC50 of `Cc1c2ccncc2c(C)c2c1[nH]c1ccccc12` >= 4
Solution: FALSE

Exercise: # bool: pIC50 of CC[n+]1c(-c2ccccc2)c2cc(N)ccc2c2ccc(N)cc21 [HOMIDIUM BROMIDE] >= 4
Solution: TRUE

Exercise: # bool: pIC50 of `COc1cccc2c1C(=O)c1c(O)c3c(c(O)c1C2=O)C[C@@](O)(C(C)=O)C[C@@H]3O[C@H]1C[C@H](N)[C@H](O)[C@H](C)O1` >= 4
Solution: FALSE

Exercise: # bool: pIC50 of `Cc1cc2cc3cc(C)c(N)cc3nc2cc1N` >= 4
Solution: TRUE

Exercise: # bool: pIC50 of `CC[N+](C)(CC)CCC[n+]1c(-c2ccccc2)c2cc(N)ccc2c2ccc(N)cc21` >= 4
Solution: TRUE

Exercise: # bool: pIC50 of Cc1c2oc3c(C)ccc(C(=O)N[C@@H]4C(=O)N[C@H](C(C)C)C(=O)N5CCC[C@H]5C(=O)N(C)CC(=O)N(C)[C@@H](C(C)C)C(=O)O[C@@H]4C)c3nc-2c(C(=O)N[C@@H]2C(=O)N[C@H](C(C)C)C(=O)N3CCC[C@H]3C(=O)N(C)CC(=O)N(C)[C@@H](C(C)C)C(=O)O[C@@H]2C)c(N)c1=O [DACTINOMYCIN] (I: T[dV]P[Sar][NMeV] / II: T[dV]P[Sar][NMeV]; ester I:1-I:C, II:1-II:C; linker I:N-II:N via Actinocin(9to1)) >= 4
Solution: FALSE

Exercise: # bool: pIC50 of `CCOc1ccc2nc3cc(N)ccc3c(N)c2c1` >= 4
Solution: TRUE

====

- assay.text: Inhibition of telomerase
observable: IC50 (µM)
Record the value in µM, omitting the unit from your answer.

Exercise: Find the recorded IC50 belonging to `CC[n+]1c(-c2ccccc2)c2cc(N)ccc2c2ccc(N)cc21` and report it.
Solution: 3.3

====

- tgt: Human immunodeficiency virus type 1 reverse transcriptase (Human immunodeficiency virus 1, UniProt Q72547)
- assay.text: Inhibition of HIV-1 reverse transcriptase using 25 ug/mL of Poly(rA).p(dT) (12 to 18) as substrate after 30 mins by single point PCR assay in presence of 340 uM base pair of calf thymus DNA
observable: IC50
Remember to quote the unit after the number.

Exercise: Find the recorded IC50 belonging to `Nc1ccc2c(c1)c(-c1ccccc1)[n+](CCCNCCNCCC[n+]1c(-c3ccccc3)c3cc(N)ccc3c3ccc(N)cc31)c1cc(N)ccc21` and report it.
Solution: 8.5 µM

====

- tgt: Human immunodeficiency virus type 1 reverse transcriptase (Human immunodeficiency virus 1)
- assay.text: Inhibition of HIV-1 reverse transcriptase using 0.05 ug/mL of Poly(rA).p(dT) (12 to 18) as substrate after 30 mins by single point PCR assay
pIC50: −log10 of the molar value.
# if value of pIC50 reaches 8, tag Met; if it stays below, tag Not met

Exercise: # bool: pIC50 of NC(=O)C(CNC(=O)c1ccc(C[n+]2c(-c3ccccc3)c3cc(N)ccc3c3ccc(N)cc32)cc1)NC(=O)CCCCCNC(=O)[C@@H](N)CCCCNC(=O)c1ccc(C[n+]2c(-c3ccccc3)c3cc(N)ccc3c3ccc(N)cc32)cc1 (stereo partly drawn) >= 8
Solution: Not met

Exercise: # bool: pIC50 of NC(=O)C(CNC(=O)c1ccc(C[n+]2c(-c3ccccc3)c3cc(N)ccc3c3ccc(N)cc32)cc1)NC(=O)[C@@H](N)CCCNC(=O)c1ccc(C[n+]2c(-c3ccccc3)c3cc(N)ccc3c3ccc(N)cc32)cc1 (stereo partly drawn) >= 8
Solution: Not met

Exercise: # bool: pIC50 of `COc1ccc2nc3cc(Cl)ccc3c(NCCCNCCCCNCCCNc3c4ccc(Cl)cc4nc4ccc(OC)cc34)c2c1` >= 8
Solution: Not met

Exercise: # bool: pIC50 of `NC(=O)[C@H](CCCNC(=O)c1ccc(C[n+]2c(-c3ccccc3)c3cc(N)ccc3c3ccc(N)cc32)cc1)NC(=O)CCCCCNC(=O)[C@@H](N)CCCNC(=O)c1ccc(C[n+]2c(-c3ccccc3)c3cc(N)ccc3c3ccc(N)cc32)cc1` >= 8
Solution: Met

Exercise: # bool: pIC50 of `CC[n+]1c(-c2ccccc2)c2cc(N)ccc2c2ccc(N)cc21` >= 8
Solution: Not met

====

Provide the reported IC50 of each item.
- tgt: Human immunodeficiency virus type 1 reverse transcriptase (Human immunodeficiency virus 1)
- assay.text: Inhibition of HIV-1 reverse transcriptase using 0.5 ug/mL of Poly(rA).p(dT) (12 to 18) as substrate after 30 mins by single point PCR assay
Record the value in nM, omitting the unit from your answer.

Exercise: Find the recorded IC50 belonging to `COc1ccc2nc3cc(Cl)ccc3c(NCCCNCCCCNCCCNc3c4ccc(Cl)cc4nc4ccc(OC)cc34)c2c1` and report it.
Solution: 400

Exercise: Find the recorded IC50 belonging to `CC[n+]1c(-c2ccccc2)c2cc(N)ccc2c2ccc(N)cc21` and report it.
Solution: 1800

====

- tgt: Human immunodeficiency virus type 1 reverse transcriptase (Human immunodeficiency virus 1)
- assay.text: Inhibition of HIV-1 reverse transcriptase using 25 ug/mL of Poly(rA).p(dT) (12 to 18) as substrate after 30 mins by single point PCR assay
observable: IC50 (µM)
Record the value in µM, omitting the unit from your answer.

Exercise: Enter reported IC50 observed with Human immunodeficiency virus type 1 reverse transcriptase (Human immunodeficiency virus 1) for COc1ccc2nc3cc(Cl)ccc3c(NCCCNCCCCNCCCNc3c4ccc(Cl)cc4nc4ccc(OC)cc34)c2c1 [ACRIDINE DIMER]
Solution: 12.9

Exercise: Enter reported IC50 observed with Human immunodeficiency virus type 1 reverse transcriptase (Human immunodeficiency virus 1) for `Nc1ccc2c(c1)c(-c1ccccc1)[n+](CCCNCCNCCC[n+]1c(-c3ccccc3)c3cc(N)ccc3c3ccc(N)cc31)c1cc(N)ccc21`
Solution: 2.3

Exercise: Enter reported IC50 observed with Human immunodeficiency virus type 1 reverse transcriptase (Human immunodeficiency virus 1) for CC[n+]1c(-c2ccccc2)c2cc(N)ccc2c2ccc(N)cc21 [HOMIDIUM]
Solution: 2.2

====

Provide the reported pIC50 of each item.
- tgt: Human immunodeficiency virus type 1 reverse transcriptase (Human immunodeficiency virus 1)
- assay.text: Inhibition of HIV-1 reverse transcriptase using 0.05 ug/mL of Poly(rA).p(dT) (12 to 18) as substrate after 30 mins by single point PCR assay
Please express pIC50 as -log10 of the molar concentration.

Exercise: Enter reported pIC50 observed with Human immunodeficiency virus type 1 reverse transcriptase (Human immunodeficiency virus 1) for `NC(=O)[C@H](CCCCNC(=O)c1ccc(C[n+]2c(-c3ccccc3)c3cc(N)ccc3c3ccc(N)cc32)cc1)NC(=O)CCCNC(=O)[C@@H](N)CCCCNC(=O)c1ccc(C[n+]2c(-c3ccccc3)c3cc(N)ccc3c3ccc(N)cc32)cc1`
Solution: 7.98

Exercise: Enter reported pIC50 observed with Human immunodeficiency virus type 1 reverse transcriptase (Human immunodeficiency virus 1) for NC(=O)[C@H](CCCNC(=O)c1ccc(C[n+]2c(-c3ccccc3)c3cc(N)ccc3c3ccc(N)cc32)cc1)NC(=O)CCNC(=O)C(N)CNC(=O)c1ccc(C[n+]2c(-c3ccccc3)c3cc(N)ccc3c3ccc(N)cc32)cc1 (stereo partly drawn)
Solution: 8.04

Exercise: Enter reported pIC50 observed with Human immunodeficiency virus type 1 reverse transcriptase (Human immunodeficiency virus 1) for `Nc1ccc2c(c1)c(-c1ccccc1)[n+](CCCNCCNCCC[n+]1c(-c3ccccc3)c3cc(N)ccc3c3ccc(N)cc31)c1cc(N)ccc21`
Solution: 7.97
